- Tested on: M14
- procedure text: NCI tumour cell line growth inhibition, 48 h
Active and inactive are the calls of the source. No stated cut-off is given here; in the data, active = GI50 up to about 1.1 µM and inactive = higher.
Property: GI50; scope: individual molecules
experimental readout: GI50

1. OCCc1cnco1 ... > 100 µM (inactive)
2. O=C(O)CC[P+](c1ccccc1)(c1ccccc1)c1ccccc1 ... 23.1 µM (inactive)
3. O=C(CCc1ccccc1)NCCc1ccc(O)c(O)c1 ... > 54.8 µM (inactive)
4. Cc1cn2c(/C=C3/C(=O)Nc4cccc(Cl)c43)c(Cl)nc2s1 ... 34.7 µM (inactive)
5. COc1ccc(OC)c(CC(C)N)c1 (configuration not stated) ... > 100 µM (inactive)
6. COC(=O)c1cc(NC(=O)c2cc(NC(=O)Cc3c[nH]c4ccccc34)cn2C)cn1C ... 33 µM (inactive)
7. CN(C)/C=N/c1ccc2nonc2c1 ... > 100 µM (inactive)
8. C[C@H]1C[C@H](C)c2ccccc2N(C)/C1=N\c1ccccc1 ... 21.5 µM (inactive)
9. O=C(NC(OCc1ccccc1)(C(F)(F)F)C(F)(F)F)OCc1ccccc1 ... 18.9 µM (inactive)
10. OCC(O)COc1ccc(F)cc1 (configuration not stated) ... > 100 µM (inactive)
11. COc1ccc2c(c1O)C(=O)C(CCC(=O)O)CC2 (configuration not stated) ... > 100 µM (inactive)
12. Cc1ccc(NC(=O)c2cc(S(=O)(=O)N3CCNNC3=O)c(S)cc2Cl)cc1 ... > 100 µM (inactive)
13. Cc1ncc(CI)c(CI)c1O ... > 100 µM (inactive)
14. O=C1CSC(c2ccc(Cl)cc2)N1c1ccc(Oc2ccc(Cl)cc2)c(Cl)c1 (configuration not stated) ... 16.7 µM (inactive)
15. CC1OC2=N[C@@H]1C(=O)N[C@@H](C(C)C)C1=N[C@H](C(=O)N[C@@H](C(C)C)C3=N[C@H](C(=O)N[C@@H](C(C)C)C4=N[C@H](C(=O)N[C@H]2C(C)C)C(C)O4)C(C)O3)C(C)O1 (some centres not stated) ... > 10 µM (inactive)
16. COc1ccc2oc(-c3ccncc3)cc(=O)c2c1 ... > 100 µM (inactive)
17. COc1cc(S(=O)(=O)Nc2ccc(-c3csc(N4C(=O)CSC4c4ccccc4)n3)cc2)ccc1Cl (configuration not stated) ... 43.8 µM (inactive)
18. NNC(=O)CSc1nc2ccc(I)cc2c(=O)n1Cc1ccccc1 ... 18.2 µM (inactive)
19. COC1C(OC(=O)c2ccc(C)[nH]2)C(O)C(Oc2ccc3c(O)c(NC(=O)c4ccc(O)c(CC=C(C)C)c4)c(=O)oc3c2Cl)OC1(C)C (configuration not stated) ... 16 µM (inactive)
20. C=CCn1c(-c2ccc(Cl)cc2)cs/c1=N\c1ccccc1OC ... 10.1 µM (inactive)
21. CC1(C)C(CCO)CC1n1ccc(=O)[nH]c1=O (configuration not stated) ... > 100 µM (inactive)
22. CC1=N/C(=C\c2cccc3ccccc23)C(=O)O1 ... > 100 µM (inactive)
